# Test system: U2OS
# test: Multiplex assay against U2OS
# Assay type: toxicity, cell-based
# test-context: human, 12 h, 10 µM, compound concentration 10 uM, replicate 1
Entries whose Population Apoptotic (%) is below 50% take met; entries at or above 50% take not met.

compound	classification
CCOC(=O)CCNc1cc(N2CCc3ccccc3CC2)nc(-c2ccccn2)n1	met
CC(Cc1ccc(O)c(O)c1)C(C)Cc1ccc(O)c(O)c1 (stereo not drawn) [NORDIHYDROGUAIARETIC ACID]	met
CCCCCNC(=N)N/N=C/c1c[nH]c2ccc(OC)cc12.O=C(O)/C=C\C(=O)O [TEGASEROD MALEATE]	not met
CCOc1ccn(-c2ccc(F)cc2)c(=O)c1C(=O)Nc1ccc(Oc2ccnc(N)c2Cl)c(F)c1	not met
N#CCNC(=O)c1ccc(-c2ccnc(Nc3ccc(N4CCOCC4)cc3)n2)cc1	met
Cl.NC[C@@H]1O[C@H](C23CC4CC(CC(C4)C2)C3)Cc2c1ccc(O)c2O	met

----------
# Tested on: U2OS
# test: Multiplex assay against U2OS
# Assay type: toxicity, cell-based
# test-context: human, 48 h, 1 µM, compound concentration 1 uM, replicate 2
property-name: Population Pyknosed Nuclei (%)

compound	measurement-units	recorded-value
CC(C)c1cc(Nc2nc(N3CCC[C@H](N)C3)ncc2C(N)=O)cc(C(C)C)n1	%	25
Cc1c(P(=S)(c2ccccc2)c2ccccc2)n2ccccc2[n+]1C/C=C/c1ccccc1.[Br-]	%	8
C=CC(=O)Nc1cc(-n2c(=O)ccc3cnc4ccc(-c5ccc(NS(C)(=O)=O)cc5)cc4c32)ccc1C	%	9
CCCCN(CC)c1nc(C)nc2c1c(C)cn2-c1c(C)cc(C)cc1C.Cl	%	8
CN1C(=O)[C@@H](NC(=O)c2cc3ccccc3[nH]2)N=C(c2ccccc2)c2ccccc21 [DEVAZEPIDE]	%	12
CN(c1cc(C(F)(F)F)nc(OCCC(=O)O)n1)c1cccc2c1CCC2	%	4
Cl.NC[C@@H]1O[C@H](C23CC4CC(CC(C4)C2)C3)Cc2c1ccc(O)c2O	%	5
CCCc1cc(C)[nH]c(=O)c1CNC(=O)c1cc(-c2ccc(N3CCN(C(C)C)CC3)nc2)cc2c1cnn2C(C)C	%	18
CC(/C=C1\SC(=S)N(CCCC(=O)Nc2ccc(C(=O)O)c(O)c2)C1=O)=C\c1ccccc1	%	8

----------
# System: Fibroblast
# test: Multiplex assay against human fibroblast
# Type: toxicity, cell-based
# test-context: 12 h, 10 µM, compound concentration 10 uM, replicate 2

compound	measurement-units	Population Apoptotic (%)
CC[C@H](Nc1ncnc2[nH]cnc12)c1nc2cccc(F)c2c(=O)n1-c1ccccc1 [IDELALISIB]	%	50
CCOC(=O)CCNc1cc(N2CCc3ccccc3CC2)nc(-c2ccccn2)n1	%	66
C[C@@H](Oc1cc(-n2cnc3ccc(CN4CCN(C)CC4)cc32)sc1C(N)=O)c1ccccc1C(F)(F)F [GSK-461364]	%	40
CC(/C=C1\SC(=S)N(CCCC(=O)Nc2ccc(C(=O)O)c(O)c2)C1=O)=C\c1ccccc1	%	44
CC(C)c1cc(Nc2nc(N3CCC[C@H](N)C3)ncc2C(N)=O)cc(C(C)C)n1	%	65
CCCCCNC(=N)N/N=C/c1c[nH]c2ccc(OC)cc12.O=C(O)/C=C\C(=O)O [TEGASEROD MALEATE]	%	100
c1ccc(-c2oc3ncnc(NC[C@@H]4CCCO4)c3c2-c2ccccc2)cc1	%	87
CN(c1cc(C(F)(F)F)nc(OCCC(=O)O)n1)c1cccc2c1CCC2	%	0
Cc1ccc(S(=O)(=O)NC2c3ccccc3Oc3ccccc32)cc1	%	95
